target: TrkB (Rattus norvegicus, UniProt Q63604); construct: endogenous in cells; host or cells: primary rat cortical and hippocampal neurons; test: Immunofluorescent staining with anti-phospho-TrkB Y816 in primary hippocampal neurons; format: cell-based; details: 300 nM, 30 min
Sequence (Q63604 32-821): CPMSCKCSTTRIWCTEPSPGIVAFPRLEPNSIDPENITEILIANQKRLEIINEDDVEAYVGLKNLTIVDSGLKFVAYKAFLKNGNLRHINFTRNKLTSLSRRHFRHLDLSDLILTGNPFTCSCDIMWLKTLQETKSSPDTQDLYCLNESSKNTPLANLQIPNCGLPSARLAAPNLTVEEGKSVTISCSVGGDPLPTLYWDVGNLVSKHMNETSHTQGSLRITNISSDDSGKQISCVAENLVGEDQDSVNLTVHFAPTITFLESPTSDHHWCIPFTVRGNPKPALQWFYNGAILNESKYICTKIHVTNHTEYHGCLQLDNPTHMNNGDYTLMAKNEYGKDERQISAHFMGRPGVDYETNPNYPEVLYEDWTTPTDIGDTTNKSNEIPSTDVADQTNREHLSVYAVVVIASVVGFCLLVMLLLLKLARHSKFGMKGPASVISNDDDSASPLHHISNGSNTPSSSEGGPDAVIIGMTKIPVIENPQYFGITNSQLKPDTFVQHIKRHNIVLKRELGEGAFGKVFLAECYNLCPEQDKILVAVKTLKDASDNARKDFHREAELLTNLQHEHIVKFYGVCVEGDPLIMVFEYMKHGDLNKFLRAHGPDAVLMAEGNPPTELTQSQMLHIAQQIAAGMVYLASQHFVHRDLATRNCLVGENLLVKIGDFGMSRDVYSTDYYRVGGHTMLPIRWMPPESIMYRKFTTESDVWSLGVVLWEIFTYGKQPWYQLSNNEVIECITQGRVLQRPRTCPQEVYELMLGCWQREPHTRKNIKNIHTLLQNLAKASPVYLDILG
RECORDED METRIC: TrkB tyrosine phosphorylation (immunofluorescent staining)

COMPOUND: O=C(O)Cc1c[nH]c2ccc(O)cc12 [Compound 5-HIAA, 5-hydroxyindoleacetic acid]
TARGET: TrkB (Rattus norvegicus, UniProt Q63604)
RESULT: had no effect
--
COMPOUND: COc1ccc2[nH]cc(CCNC(C)=O)c2c1 [melatonin]
TARGET: TrkB (Rattus norvegicus, UniProt Q63604)
RESULT: did not
--
COMPOUND: NCCc1c[nH]c2ccc(O)cc12 [serotonin]
TARGET: TrkB (Rattus norvegicus, UniProt Q63604)
RESULT: did not
--
COMPOUND: NCCc1c[nH]c2ccc(OS(=O)(=O)O)cc12 [Compound 5-HT-sulfate, 5-HT-sulfate]
TARGET: TrkB (Rattus norvegicus, UniProt Q63604)
RESULT: had no effect

----------
target: TrkB intracellular domain (ICD) (Homo sapiens); construct: purified ECD (extracellular domain) and ICD (intracellular domain) proteins from Trk receptors; experiment: In vitro binding assay with purified TrkB ICD and 3H-ligands (Scatchard plot); conditions: purified protein, 25° C., 30 minutes; read-out: TrkB binding constants (Scatchard plot)
Sequence (Q16620 455-822 limits assumed): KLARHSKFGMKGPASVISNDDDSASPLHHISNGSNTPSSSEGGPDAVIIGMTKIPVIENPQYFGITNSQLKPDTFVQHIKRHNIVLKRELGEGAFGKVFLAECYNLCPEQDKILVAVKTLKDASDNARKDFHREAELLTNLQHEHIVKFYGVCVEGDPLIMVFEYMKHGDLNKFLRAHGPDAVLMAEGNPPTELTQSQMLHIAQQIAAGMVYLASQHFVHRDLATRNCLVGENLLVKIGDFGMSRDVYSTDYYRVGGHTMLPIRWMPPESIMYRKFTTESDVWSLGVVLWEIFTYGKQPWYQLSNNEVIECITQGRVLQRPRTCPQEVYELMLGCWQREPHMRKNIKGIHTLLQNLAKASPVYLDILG
RECORDED METRIC: Kd (µM)
Answers are plain numbers, in µM.

COMPOUND: NC[C@H](O)c1ccc(O)c(O)c1 [norepinephrine]
TARGET: TrkB intracellular domain (ICD) (Homo sapiens)
UNITS LABEL: µM
Kd: 98

Here's the next entry for you.
Q) Output Kd of CNC[C@H](O)c1ccc(O)c(O)c1 [epinephrine]
A) 1.1

Values from patent US9266817B2
